Numbers sourced from patent US20250296916A1.

System: rabbit skeletal myofibrils (approximately 90% fast fibers)
method.summary: Activation of fast skeletal myofibrils (PUMA coupled-enzyme ATPase assay)
Type: biochemical
measurement.conditions: concentration at which the compound increased the enzymatic activity by 40%; calcium at pCa25; PM12 buffer pH 6.8
attribute.measured: AC1.4 (µM)

P: CCC[C@H]1C(=O)Nc2ccccc2N1C(=O)N1CCc2ccccc21
Q: CC[C@H](C)[C@H]1C(=O)Nc2ccccc2N1C(=O)c1cnn(C)c1
R: CC[C@H](C)[C@H]1C(=O)Nc2cnccc2N1C(=O)c1ccccc1
S: CC[C@H](C)[C@H]1C(=O)Nc2ccccc2N1C(=O)N1CC(O)C1
Please rank the 4 items above; order by AC1.4, the highest number leading. Give your ranking as a list of the labels in the requested order.
S, P, R, Q
(S: 2.1 µM, P: 0.58 µM, R: 0.28 µM, Q: 0.04 µM)

---

Test system: rabbit skeletal myofibrils (approximately 90% fast fibers)
method.summary: Activation of fast skeletal myofibrils (PUMA coupled-enzyme ATPase assay)
Format: biochemical
measurement.conditions: concentration at which the compound increased the enzymatic activity by 40%; calcium at pCa25; PM12 buffer pH 6.8
attribute.measured: AC1.4 (µM)

Worked examples, 10 compounds total:
{"columns": ["structure", "attribute.measured", "endpoint.value"],
 "data": [
  ["CC[C@H](C)[C@H]1C(=O)Nc2cnccc2N1C(=O)c1cccc(C)c1", "AC1.4", 0.13],
  ["CCC[C@H]1C(=O)Nc2ccccc2N1C(=O)Nc1ccncc1", "AC1.4", 1.08],
  ["CCC[C@H]1C(=O)Nc2ccccc2N1C(=O)Nc1cccnc1", "AC1.4", 1.51],
  ["CC[C@H](C)[C@H]1C(=O)Nc2ccccc2N1C(=O)CCO", "AC1.4", 1.18],
  ["CC[C@H](C)[C@H]1C(=O)Nc2c(F)cccc2N1C(N)=O", "AC1.4", 1.58],
  ["CCC[C@H]1C(=O)Nc2ccccc2N1C(=O)c1ccn2cncc2c1", "AC1.4", 0.17],
  ["CCC[C@H]1C(=O)Nc2ccccc2N1C(=O)c1cncc(F)c1", "AC1.4", 2.97],
  ["CC[C@H](C)[C@H]1C(=O)Nc2ccccc2N1C(=O)N1CC(F)(F)C1", "AC1.4", 1.24],
  ["CCC[C@H]1C(=O)Nc2ccccc2N1C(=O)N[C@@H](C)c1ccccc1", "AC1.4", 2.36],
  ["CCC[C@H]1C(=O)Nc2ccccc2N1C(=O)Nc1ccc(OC)cc1", "AC1.4", 1.88]
]}

a: CCC[C@H]1C(=O)Nc2ccccc2N1C(=O)c1ccc(NCc2ccccc2)nc1
b: CC[C@H](C)[C@H]1C(=O)Nc2ccccc2N1C(=O)N(C)CCCO
Exercise: compare a and b ; which one has the greater AC1.4? Choose, then provide that item's label.
b

I: CC[C@H](C)[C@H]1C(=O)Nc2ccccc2N1C(=O)c1cc[nH]n1
II: CCC[C@H]1C(=O)Nc2ccccc2N1C(=O)c1cccnc1
Exercise: compare I and II ; which one has the greater AC1.4? Choose, then provide that item's label.
II

---

Tested on: rabbit skeletal myofibrils (approximately 90% fast fibers)
method.summary: Activation of fast skeletal myofibrils (PUMA coupled-enzyme ATPase assay)
Assay type: biochemical
measurement.conditions: concentration at which the compound increased the enzymatic activity by 40%; calcium at pCa25; PM12 buffer pH 6.8
attribute.measured: AC1.4 (µM)

{"columns": ["molecule", "attribute.measured", "endpoint.value"],
 "data": [
  ["CCC[C@H]1C(=O)Nc2ccccc2N1C(=O)c1cnn(C2CCC2)c1 [Compound 32]", "AC1.4", 0.71]
]}

A: CCC[C@H]1C(=O)Nc2ccccc2N1C(=O)c1ccc(N2CCC(F)(F)C2)nc1 [Compound 43]
B: CCC[C@H]1C(=O)Nc2ccccc2N1C(=O)c1cnc2[nH]ccc2c1 [Compound 26]
C: CCC[C@H]1C(=O)Nc2ccccc2N1C(=O)c1ccc(N2CCCCCC2)nc1 [Compound 35]
Sort (3 molecules) by AC1.4: min first. Give your ranking as a list of the labels in the requested order.
B, C, A
(B: 0.56 µM, C: 1.32 µM, A: 2.78 µM)
